Below, each entry is listed alongside its reported melting point.
parameter: melting point

molecule: Nc1ccc(CC(=O)Nc2ccc(Nc3ccccc3)cc2)cc1
parameter: melting point
result: 162 to 163 °C
//
molecule: CNC(=S)NCc1nc(C(C)C)c(Sc2cc(Cl)cc(Cl)c2)n1C
parameter: melting point
result: 188 to 190 °C
//
molecule: Cc1cc(S(=O)(=O)N(C)CC(O)(CO)c2cccc(Cl)n2)ccc1Cl (stereo not given)
parameter: melting point
result: 131 to 132 °C
//
molecule: CC(=O)Oc1ccccc1-c1nn2cc(-c3ccccc3)nc2s1
parameter: melting point
result: 177 °C
//
molecule: CCOc1ccc(C)cc1NC(=O)Nc1ccc(N2CCN(C(=O)OC(C)(C)C)CC2)cc1
parameter: melting point
result: 105 to 107 °C

###

Below, each entry is listed alongside its reported melting point.

compound: NC(=O)Cc1ccc2c(c1)Cc1c-2[nH]c(=O)c2nccn12
melting point: > 260 °C
--
compound: Nc1c([N+](=O)[O-])cc([N+](=O)[O-])c2c1CCCC2
melting point: 175 to 176 °C
--
compound: FC(F)(F)c1cc(CO[C@@H]2CCCN(Cc3nc4ccccc4[nH]3)[C@@H]2c2ccccc2)cc(C(F)(F)F)c1 (relative stereo)
melting point: 152 to 153 °C
--
compound: CS(=O)c1nn(Cc2cccc(C(F)(F)F)c2)c(N)c1C#N (centres undefined)
melting point: 143 °C
--
compound: CCOC(=O)c1ccc2n1Cc1ccccc1N1CCN(C)CC21 (centres undefined)
melting point: 128 to 130 °C
--
compound: CS(=O)(=O)c1ccc(-c2nn(Cc3ccccc3)c(=O)cc2-c2ccc(F)cc2)cc1
melting point: 188 °C
--
compound: O=C(CN1C(=O)c2ccccc2C1=O)Nc1ccccc1-c1ccccc1
melting point: 204 °C
--
compound: COc1cc2c(cc1OC)CCCC(C(=O)N1CCN(C(=O)c3cc(OC)c(OC)c(OC)c3)C(C(=O)N(C)C)C1)=C2 (centres undefined)
melting point: 177 to 178 °C
--
compound: CN(C)n1c(NN)nc2ccccc2c1=O
melting point: 125 to 127 °C
--
compound: O=c1[nH]c2ccccc2n1CCCCN1CCC(O)(c2ccc(Cl)cc2)CC1
melting point: 161 °C
--
compound: CCCc1nc2c(N)nc3cc(OCc4ccccc4)ccc3c2n1CC(C)C
melting point: 206 to 208 °C
--
compound: CC(C)(C)C=Cc1nn(-c2ccc(F)cc2F)c2c1C1CCC2C1 (centres undefined)
melting point: 98 to 101 °C
--
compound: COc1cc(OC)c2c(C)c(CCN3CCN(c4ccccc4O)CC3)c(=O)oc2c1
melting point: 164 to 165 °C
--
compound: CC#CCCn1ncc2c(N)c3c(nc21)CN(CCCC)C3=O
melting point: 171 to 172 °C
--
compound: Cn1cc(C(=O)O)c(=O)c2cc(Cl)c(N3CCOCC3)cc21
melting point: 334 °C
--
compound: Cc1cc(Nc2cc(-c3ccccc3)nc3ccccc23)[nH]n1
melting point: 242 to 244 °C
--
compound: CC1(C)c2cc(C#N)ccc2OC1Cl (centres undefined)
melting point: 105 to 106 °C
--
compound: CSC(=NCCSCc1nccs1)NC(=O)c1ccccc1
melting point: 64 to 65 °C
--
compound: CCOCc1nc2c(N)nc3ccccc3c2n1CC1(O)CCC1
melting point: 174 to 175 °C
--
compound: CCc1c(OC)nc(OC)nc1C(=O)c1cc(C)cc(C=CC#N)c1
melting point: 165 to 166 °C
--
compound: Cc1nn(-c2cc(CC(Cl)C(=O)NC3CC3)c(Cl)cc2Cl)c(=O)n1C(F)F (centres undefined)
melting point: 139 to 143 °C
--
compound: O=C1C2C3C=CC(CC3)C2S(=O)(=O)N1CCCCBr (centres undefined)
melting point: 118 to 122 °C
--
compound: COc1cccc(C(=NO)c2sccc2Br)c1
melting point: 100 to 103 °C
--
compound: CCCCCCCN(C[C@H]1CC[C@H](CN(CCCCCCC)C(=O)Nc2ccc(N(C)C)cc2)CC1)C(=O)Nc1ccc(N(C)C)cc1
melting point: 112 to 114 °C
--
compound: CSCCCNc1cn(-c2cccnc2)nc1Cl
melting point: 80 to 81 °C
--
compound: Cc1c2c(c(CCC=O)c(C(C)C)c1OCc1ccccc1)OC(C)(C)C2
melting point: 88 to 89 °C
--
compound: CCOc1c(Cc2c[nH]c3ccccc23)[nH]c(=O)c(CC(C)C)[n+]1[O-]
melting point: 192 to 193 °C
--
compound: CN(C)C1(c2ccccc2)CCC(CNC(=O)CCCCCc2c[nH]c3ccc(F)cc23)CC1 (centres undefined)
melting point: 52 to 54 °C
--
compound: CCc1c2nc(-c3cc(S(C)(=O)=O)ccc3OCC(C)C)[nH]c(=O)c2nn1C1CCNCC1
melting point: 263 to 265 °C
--
compound: CCS(=O)(=O)N1CCN(c2ccc(NC(=O)c3cc(=O)c4cc(OC)cc(N5CCN(C)CC5)c4o3)cc2)CC1
melting point: 232 to 234 °C
--
compound: CCCCOCCOc1ccc(-c2cc3c4c(c2)OCCN4CCCC(C(=O)O)=C3)cc1
melting point: 205 to 209 °C
--
compound: O=C(c1cccnc1)c1ccc(Cl)c([N+](=O)[O-])c1
melting point: 112 to 113 °C
--
compound: CCOc1ccc(C2CCC3c4ccc(OCC)c(F)c4OC3C2)c(F)c1F (centres undefined)
melting point: 126 °C
--
compound: CC(=O)OC1CSC(Oc2ccc(-c3cccnc3)nc2)C(OC(C)=O)C1OC(C)=O (centres undefined)
melting point: 196 °C
--
compound: O=c1[nH]c2ccccc2n1CC1CCCN(CC(O)C2COc3ccccc3O2)C1 (centres undefined)
melting point: 154 °C
--
compound: O=C1c2c(Cl)cccc2-n2cnc(-c3cnco3)c2[C@@H]2CCCN12
melting point: 201 to 202 °C
--
compound: O=c1cc(-c2cccc(Cl)c2)c2cc(C(c3ccc(Cl)cc3)n3ccnc3)cc3c2n1CCC3 (centres undefined)
melting point: 195 °C
--
compound: CCCCCC1=NNC(C)=C(C(=O)NN)C1c1ccccc1 (centres undefined)
melting point: 161 °C
--
compound: COc1ccc(-c2nc(CCl)co2)s1
melting point: 64 to 65 °C

###

compound: CNC(=NC#N)NCCCn1cc(C2=C(c3cn(C)c4ccccc34)C(=O)NC2=O)c2ccccc21
melting point: 190 to 193 °C

compound: O=C(O)c1cn(CCF)c2cc(Cl)c(F)cc2c1=O
melting point: 262 to 264 °C

compound: Cc1nc2c3c(c(C(=O)NN4CC4)cc2n1C)CCC(c1ccccc1)N3 (stereo not given)
melting point: 192 to 193 °C

compound: CC(=O)N1CCN(N)c2ccccc2C1
melting point: 66 to 68 °C

compound: Cc1nc2c(O)c(C(=O)[C@H](O)[C@@H](O)c3ccccc3)ccc2n1C1CC1
melting point: 120 °C

compound: Nc1cccnc1C(=O)NO
melting point: 131 to 133 °C

compound: CCCc1ccccc1OCCCOc1ccc2c(c1CCC)OC(CCC(=O)O)(CCC(=O)O)CC2=O
melting point: 163 to 165 °C

compound: CCOC(=O)c1nc2ccc(C(C(C)C)n3ccnc3)cc2[nH]c1=O (stereo not given)
melting point: 185 °C

compound: Nc1ccc(NC(=O)C=C2CC(C(=O)O)Nc3cc(Cl)cc(Cl)c32)cc1 (racemic)
melting point: > 250 °C

compound: O=c1cc(-c2ccncc2)nc(-c2cccnc2)[nH]1
melting point: > 300 °C

###

Below, each entry is listed alongside its reported melting point.
parameter: melting point

compound: COc1cc(C(=CC#N)c2ccc(OC)c(OC)c2)ccc1N
parameter: melting point
result: 104 to 106 °C
--
compound: CCN1CCc2nc(N3CCNCC3)ncc2C1=O
parameter: melting point
result: 205 to 210 °C
--
compound: S=C(NCc1cccc2ccccc12)N1CCc2c([nH]c3ccccc23)C1c1ccc2c(c1)OCO2 (stereo not given)
parameter: melting point
result: 111 to 113 °C
--
compound: O=C(c1ccc(Cl)cc1)c1cc[nH]c1
parameter: melting point
result: 118 to 120 °C
--
compound: COc1ccc(N2C(=O)C(OC(C)=O)C2c2ccccc2Cl)cc1 (stereo not given)
parameter: melting point
result: 130 to 132 °C
--
compound: C=CCn1cc2c(c1)-c1ccc(Cl)cc1C(c1ccccc1F)=NC2
parameter: melting point
result: 100 to 102 °C
--
compound: CC(C)CC(=O)c1cc(-c2ccccc2)no1
parameter: melting point
result: 62 to 64 °C
--
compound: COc1ccc2[nH]c(=O)n(S(=O)(=O)c3ccc(Cl)cc3)c(=O)c2c1
parameter: melting point
result: 192 to 194 °C
--
compound: CCN(C=C(C#N)C#N)c1cc(C(F)(F)F)cc(C(F)(F)F)c1
parameter: melting point
result: 118 to 120 °C
--
compound: CCOC(=O)c1ccc(N)c(OCC#N)c1
parameter: melting point
result: 140 to 142 °C
